Values were extracted from patent US11918592B2.

# System: MB453 cells
# assay summary: Inhibition of cell proliferation, CyQUANT Direct, MB453
# Type: cell-based, human
# condition description: Homo sapiens; MB453 triple negative breast cancer cells, 72-hour; read-out: MB 453 proliferation calculated IC50
measured quantity: IC50

> print(dat)
                                    molecule    assay.result
 1  N#Cc1ccc2c(-c3nc(N[C@H]4CC[C@@H]4N4CCOCC4)ncc3C(F)(F)F)c[nH]c2c1       > 2000 nM
 2  C[C@@H]1C[C@H](Nc2ncc(C(F)(F)F)c(-c3c[nH]c4cc(C#N)ccc34)n2)CN1  500 to 2000 nM
 3  Cc1noc(C)c1-c1ccc2c(-c3nc(N[C@H]4CCC[C@@H]4N4CC(O)C4)ncc3C(F)(F)F)c[nH]c2n1   100 to 500 nM
 4  Cc1noc(C)c1-c1ccc2c(-c3nc(N[C@H]4CCC[C@@H]4NCCO)ncc3C(F)(F)F)c[nH]c2n1        < 100 nM
 5  CC(C)N1CC[C@H](Nc2ncc(C(F)(F)F)c(-c3c[nH]c4cc(C#N)ccc34)n2)C1       > 2000 nM
 6  Cc1noc(C)c1-c1ccc2c(-c3nc(N[C@H]4C[C@H]5CC[N@](CC5)C4)ncc3C(F)(F)F)c[nH]c2n1        < 100 nM
 7  N#Cc1ccc2c(-c3nc(N[C@H]4CC[C@@H]4N4CCCC4)ncc3C(F)(F)F)c[nH]c2c1   100 to 500 nM
 8  N[C@H]1CCC[C@@H]1Nc1ncc(C(F)(F)F)c(-c2c[nH]c3cc(-c4nccs4)ccc23)n1   100 to 500 nM
 9  N#Cc1ccc2c(-c3nc(N[C@H]4CCCC[C@@H]4N)ncc3C(F)(F)F)c[nH]c2c1  500 to 2000 nM
10  Cc1noc(C)c1-c1ccc2c(-c3nc(N[C@H]4CCC[C@@H]4N)ncc3C(F)(F)F)n[nH]c2n1   100 to 500 nM
11  Cc1noc(C)c1-c1ccc2c(-c3nc(N[C@@H]4C[C@@H]5CC[C@H]4N5)ncc3C(F)(F)F)c[nH]c2n1        < 100 nM
12  Cc1noc(C)c1-c1ccc2c(-c3nc(N[C@H]4CC[C@@H]4N)ncc3C(F)(F)F)c[nH]c2c1        < 100 nM
13  Cc1noc(C)c1-c1ccc2c(-c3nc(N[C@H]4CCC[C@@H]4N4CC(F)C4)ncc3C(F)(F)F)c[nH]c2n1       > 2000 nM
14  N#Cc1ccc2c(-c3nc(N[C@@H]4C[C@@H]5CC[C@H]4N5)ncc3C(F)(F)F)c[nH]c2c1   100 to 500 nM
15  Cc1noc(C)c1-c1ccc2c(-c3nc(N[C@H]4CC[C@@H]4N)ncc3C(F)(F)F)c[nH]c2n1        < 100 nM
16  CN1CC[C@H](Nc2ncc(C(F)(F)F)c(-c3c[nH]c4cc(C#N)ccc34)n2)C1  500 to 2000 nM
17  N#Cc1ccc2c(-c3nc(N[C@H]4C[C@H]5CC[C@@H]4N5)ncc3C(F)(F)F)c[nH]c2c1        < 100 nM
18  COC1CCN([C@H]2CCC[C@@H]2Nc2ncc(C(F)(F)F)c(-c3c[nH]c4nc(-c5c(C)noc5C)ccc34)n2)C1 (stereo partly shown)  500 to 2000 nM
19  Cc1noc(C)c1-c1ccc2c(-c3nc(N[C@@H]4C[C@H]5CC[N@](CC5)C4)ncc3C(F)(F)F)cn(S(=O)(=O)c3ccccc3)c2n1   100 to 500 nM
20  Cc1noc(C)c1-c1ccc2c(-c3nc(N[C@H]4CCC[C@@H]4NCC(F)F)ncc3C(F)(F)F)c[nH]c2n1   100 to 500 nM
21  CCN[C@H]1CCC[C@@H]1Nc1ncc(C(F)(F)F)c(-c2c[nH]c3cc(C#N)ccc23)n1        < 100 nM
22  N#Cc1ccc2c(-c3nc(N[C@H]4CC[C@@H]4N)ncc3C(F)(F)F)c[nH]c2c1   100 to 500 nM
23  COCCNC1CCC[C@@H]1Nc1ncc(C(F)(F)F)c(-c2c[nH]c3nc(-c4c(C)noc4C)ccc23)n1 (stereo in doubt)   100 to 500 nM
24  N#Cc1ccc2c(-c3nc(N[C@@H]4C[C@@H]5CCC4N5)ncc3C(F)(F)F)c[nH]c2c1 (racemic)   100 to 500 nM
25  Cc1noc(C)c1-c1ccc2c(-c3nc(N[C@H]4CCC[C@H]4N4CC(O)C4)ncc3C(F)(F)F)c[nH]c2n1  500 to 2000 nM
26  N#Cc1ccc2c(-c3nc(N[C@@H]4CNC[C@@H]4O)ncc3C(F)(F)F)c[nH]c2c1 (relative stereo)       > 2000 nM
27  COCCN[C@H]1CC[C@@H]1Nc1ncc(C(F)(F)F)c(-c2c[nH]c3cc(C#N)ccc23)n1  500 to 2000 nM
28  N#Cc1ccc2c(-c3nc(N[C@H]4Cc5ccccc5[C@@H]4N)ncc3C(F)(F)F)c[nH]c2c1   100 to 500 nM
